Sourced from patent US20230192831A1

target: recombinant human GREM1 (hGREM1-His; C-terminal 10His tagged, R&D, #5190-GR) (human) (UniProt O60565); test: BLI Octet, captured mAb, 100 nM GREM1 + 5 uM heparin
Sequence (O60565 other isoform, or with tags, fused parts or gaps limits assumed, form in doubt): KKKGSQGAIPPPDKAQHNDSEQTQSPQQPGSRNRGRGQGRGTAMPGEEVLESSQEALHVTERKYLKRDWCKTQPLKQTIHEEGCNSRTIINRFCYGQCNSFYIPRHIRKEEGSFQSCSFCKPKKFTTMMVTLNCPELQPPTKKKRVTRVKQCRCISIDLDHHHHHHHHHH
measure.name: Binding Signal with 30 sec Association (nm)
Express the result in nm but write the number alone.

Which Binding Signal with 30 sec Association (nm) is listed for H4H6251P (antibody, human IgG4, V domains shown) VH: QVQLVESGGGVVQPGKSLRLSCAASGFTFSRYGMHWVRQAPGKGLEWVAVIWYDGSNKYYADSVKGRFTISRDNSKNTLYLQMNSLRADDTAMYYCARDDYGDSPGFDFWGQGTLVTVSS VL: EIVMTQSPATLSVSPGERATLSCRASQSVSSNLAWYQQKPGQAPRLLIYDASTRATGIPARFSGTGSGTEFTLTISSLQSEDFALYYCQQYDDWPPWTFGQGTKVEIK ?
0.03

Now the same for H4H2780N (antibody, human IgG4, V domains shown) VH: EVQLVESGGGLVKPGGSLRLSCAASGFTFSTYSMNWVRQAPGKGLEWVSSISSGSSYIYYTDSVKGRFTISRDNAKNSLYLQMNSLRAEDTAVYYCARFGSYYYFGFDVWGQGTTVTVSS VL: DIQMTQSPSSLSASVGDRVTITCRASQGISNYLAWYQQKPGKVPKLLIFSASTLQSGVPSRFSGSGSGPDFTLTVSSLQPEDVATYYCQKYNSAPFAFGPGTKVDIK
0.13

Similarly, H4H6269P (antibody, human IgG4, V domains shown) VH: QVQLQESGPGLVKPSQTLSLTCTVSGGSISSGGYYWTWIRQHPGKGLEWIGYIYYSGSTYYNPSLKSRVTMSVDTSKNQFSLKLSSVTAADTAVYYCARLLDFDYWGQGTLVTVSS VL: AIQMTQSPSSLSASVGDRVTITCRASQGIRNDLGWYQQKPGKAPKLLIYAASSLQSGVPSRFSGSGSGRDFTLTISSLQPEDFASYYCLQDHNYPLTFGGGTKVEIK ?
0.14
